I'd appreciate it if you could supply AUC(0-inf) values for the items below.
- ASSAY_DETAILS: in vivo
- EXPERIMENTAL_CONDITIONS: BALB/c, mouse, plasma, po, 10 mg/kg
Give bare numbers, in µM·h.

Answered cases to consult:
{"columns": ["GIVEN_SMILES", "ENDPOINT_RESULT"],
 "data": [
  ["Nc1ncnc2c1c(-c1ccc3nc(OC4CC4)ccc3c1)nn2CC1CCOCC1", 1.12],
  ["CC(C)(CO)Cn1nc(-c2ccc3nc(OC4CC4)ccc3c2)c2c(N)ncnc21", 0.065],
  ["CCOc1ccc2cc(-c3nn(CC4CCN(C(C)=O)CC4)c4ncnc(N)c34)ccc2c1", 1.57]
]}

Query molecule follows.
Input: Tell me the measured AUC(0-inf) of CC(C)(CO)Cn1nc(-c2ccc3cc(OC4CC4)ccc3c2)c2c(N)ncnc21 , please.
Output: 0.517
